Target: human TOR (Homo sapiens)
Construct: FLAG
Assay: mTOR enzyme assay (DELFIA, His6-S6K substrate)
Assay type: biochemical
Conditions: read-out: mTOR Kinase Avg. IC50
RECORDED_METRIC: IC50

Here is how some compounds turned out for IC50.
COC(=O)c1cccc2c(C=C3Oc4cc(O)cc(O)c4C3=O)cn(C)c12: > 20000 nM
COc1ccc2c(c1)c(/C=C1\Oc3cc(O)ccc3C1=O)c(C(=O)N(C)C)n2CCCN(C)C: > 4000 nM
COc1ccc2c(c1)c(/C=C1\Oc3cc(O)ccc3C1=O)c(C)n2CCCN1CCCCCC1: > 800 nM
COc1ccc2c(c1)c(/C=C1\Oc3cc(O)cc(C)c3C1=O)c(C)n2CCN1CCN(C)CC1: > 160 nM
COc1ccc2c(c1)c(/C=C1\Oc3cc(NS(C)(=O)=O)ccc3C1=O)cn2CCCN(C)C: > 20000 nM
COc1ccc2c(c1)c(/C=C1\Oc3cc(O)c(F)cc3C1=O)c(C)n2CCN1CCN(C)CC1: > 800 nM

Now, please, on to the next compound.
Request: Please look up its IC50: Cn1c(-c2ccccc2)c(/C=C2\Oc3cc(O)cc(O)c3C2=O)c2c(C#N)cccc21
Response: < 23 nM

###

So I've got a bunch of compounds here, and I need their IC50 values.
Biological target: PI3K-alpha (Homo sapiens)
Sequence (P42336 whole entry, species assumed): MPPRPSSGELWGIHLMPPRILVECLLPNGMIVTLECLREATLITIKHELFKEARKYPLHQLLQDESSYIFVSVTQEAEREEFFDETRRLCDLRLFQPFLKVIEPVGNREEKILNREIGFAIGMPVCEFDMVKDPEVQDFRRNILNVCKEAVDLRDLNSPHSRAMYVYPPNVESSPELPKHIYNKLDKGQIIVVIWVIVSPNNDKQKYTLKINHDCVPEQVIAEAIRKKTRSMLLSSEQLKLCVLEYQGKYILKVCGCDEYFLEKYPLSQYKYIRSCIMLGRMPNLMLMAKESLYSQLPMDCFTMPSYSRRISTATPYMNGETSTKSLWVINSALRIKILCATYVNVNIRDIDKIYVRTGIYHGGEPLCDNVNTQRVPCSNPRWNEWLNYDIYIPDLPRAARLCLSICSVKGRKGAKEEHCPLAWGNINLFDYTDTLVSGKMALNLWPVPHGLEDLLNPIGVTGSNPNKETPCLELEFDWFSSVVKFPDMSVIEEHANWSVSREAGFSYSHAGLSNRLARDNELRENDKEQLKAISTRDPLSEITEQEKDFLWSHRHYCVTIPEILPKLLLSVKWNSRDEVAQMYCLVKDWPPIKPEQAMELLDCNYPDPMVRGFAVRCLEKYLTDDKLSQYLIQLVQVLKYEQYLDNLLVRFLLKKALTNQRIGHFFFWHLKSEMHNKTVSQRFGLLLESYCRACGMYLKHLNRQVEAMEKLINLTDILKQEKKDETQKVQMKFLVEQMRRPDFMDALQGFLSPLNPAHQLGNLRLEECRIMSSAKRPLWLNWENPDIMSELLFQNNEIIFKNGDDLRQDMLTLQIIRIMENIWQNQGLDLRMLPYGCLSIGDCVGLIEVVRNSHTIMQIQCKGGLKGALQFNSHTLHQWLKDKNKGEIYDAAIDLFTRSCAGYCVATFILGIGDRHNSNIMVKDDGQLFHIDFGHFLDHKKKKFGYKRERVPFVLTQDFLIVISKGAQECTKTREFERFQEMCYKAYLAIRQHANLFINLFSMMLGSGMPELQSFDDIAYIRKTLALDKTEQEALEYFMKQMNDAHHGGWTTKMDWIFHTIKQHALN
Sequence (P27986 whole entry partner, species assumed): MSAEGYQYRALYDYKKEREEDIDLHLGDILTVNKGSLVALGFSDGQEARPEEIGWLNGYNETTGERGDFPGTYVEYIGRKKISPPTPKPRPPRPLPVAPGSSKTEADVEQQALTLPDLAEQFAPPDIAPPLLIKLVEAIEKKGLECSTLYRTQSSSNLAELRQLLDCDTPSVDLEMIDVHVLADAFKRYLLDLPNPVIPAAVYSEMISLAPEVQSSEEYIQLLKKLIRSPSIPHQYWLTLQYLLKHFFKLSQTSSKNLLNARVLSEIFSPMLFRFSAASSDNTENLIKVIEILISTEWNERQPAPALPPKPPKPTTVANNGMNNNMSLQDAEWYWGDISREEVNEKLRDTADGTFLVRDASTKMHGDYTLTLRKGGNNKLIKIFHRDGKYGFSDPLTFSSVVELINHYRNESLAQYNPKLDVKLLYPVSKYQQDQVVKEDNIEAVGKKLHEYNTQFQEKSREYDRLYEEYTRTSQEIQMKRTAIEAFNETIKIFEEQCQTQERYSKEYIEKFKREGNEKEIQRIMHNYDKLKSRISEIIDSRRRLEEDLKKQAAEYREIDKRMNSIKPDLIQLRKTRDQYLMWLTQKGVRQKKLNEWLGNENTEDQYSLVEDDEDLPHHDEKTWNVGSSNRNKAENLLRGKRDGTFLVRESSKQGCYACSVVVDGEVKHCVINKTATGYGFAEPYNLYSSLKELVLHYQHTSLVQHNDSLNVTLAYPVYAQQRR
Experiment: PI3K-alpha fluorescence polarization assay
Type: biochemical
Conditions: read-out: PI3Kα Avg. IC50

Please review the following examples before continuing.
O=C1/C(=C/c2c(-c3ccc4ccccc4c3)[nH]c3ccccc23)Sc2ccccc21: > 10 µM
Cc1ccc2c(c1)C(=O)/C(=C/c1c[nH]c3ccc(OCc4ccccc4)cc13)S2: > 10 µM
Cn1cc(/C=C2\Oc3cc(O)ccc3C2=O)c2c(-c3ccccc3)cccc21: > 5.1 µM
Cc1ccc2c(c1)C(=O)C(=Cc1c(-c3ccc(F)cc3)[nH]c3ccccc13)S2: > 10 µM
COc1ccc2c(c1)SC(=Cc1c[nH]c3ccc(OC)cc13)C2=O: > 10 µM

Okay, next one:
Request: For the compound shown here, COc1ccc2[nH]cc(C=C3Oc4cc(S(C)(=O)=O)ccc4C3=O)c2c1 , give the reported IC50.
Response: > 10 µM

###

Target: PI3K-gamma (Homo sapiens)
Experiment: PI3K-gamma fluorescence polarization assay
Type: biochemical
Details: PI3Kγ Avg. IC50
RECORDED_METRIC: IC50 (nM)
Numbers only, in nM.

Below, each entry is followed by its recorded IC50 result.
O=C1/C(=C/c2c[nH]c3cccc(-c4ccc(F)cc4)c23)Oc2cc(O)cc(O)c21: 1080
CNC(=O)Nc1ccc2c(c1)C(=O)/C(=C/c1cn(CCCN3CCOCC3)c3ccc(OC)cc13)O2: 1360
CNCCNC(=O)c1ccc(NC(=O)Nc2ccc3c(c2)C(=O)/C(=C/c2c(C)n(C)c4ccc(OC)cc24)O3)cc1: 2
COc1ccc2[nH]cc(/C=C3\Oc4cc(O)c(O)cc4C3=O)c2c1: 8050
CNC(=O)Nc1ccc2c(c1)C(=O)/C(=C/c1c(-c3cn(C)nc3C)[nH]c3ccc(OC)cc13)O2: 5

# batch: return IC50 for each of the 4 compounds below
1. Cn1cc(/C=C2\Oc3ccc(Br)cc3C2=O)c2c(-c3ccccc3)cccc21
2. COc1ccc2c(c1)c(/C=C1\Oc3cc(O)cc(O)c3C1=O)c(C1CC1)n2CCN1CCN(C)CC1
3. CNC(=O)Nc1ccc2c(c1)C(=O)/C(=C/c1c(C)n(CCN3CCOCC3)c3ccc(OC)cc13)O2
4. CNC(=O)Nc1ccc2c(c1)C(=O)/C(=C/c1c(-c3nc(C(C)C)no3)[nH]c3ccc(OC)cc13)O2

Response:
[3810, 764, 136, 9500]

###

Give measured IC50 for each item. Keep answers brief.
Target: PI3K-gamma (Homo sapiens, UniProt P48736)
Sequence (P48736 whole entry, species assumed): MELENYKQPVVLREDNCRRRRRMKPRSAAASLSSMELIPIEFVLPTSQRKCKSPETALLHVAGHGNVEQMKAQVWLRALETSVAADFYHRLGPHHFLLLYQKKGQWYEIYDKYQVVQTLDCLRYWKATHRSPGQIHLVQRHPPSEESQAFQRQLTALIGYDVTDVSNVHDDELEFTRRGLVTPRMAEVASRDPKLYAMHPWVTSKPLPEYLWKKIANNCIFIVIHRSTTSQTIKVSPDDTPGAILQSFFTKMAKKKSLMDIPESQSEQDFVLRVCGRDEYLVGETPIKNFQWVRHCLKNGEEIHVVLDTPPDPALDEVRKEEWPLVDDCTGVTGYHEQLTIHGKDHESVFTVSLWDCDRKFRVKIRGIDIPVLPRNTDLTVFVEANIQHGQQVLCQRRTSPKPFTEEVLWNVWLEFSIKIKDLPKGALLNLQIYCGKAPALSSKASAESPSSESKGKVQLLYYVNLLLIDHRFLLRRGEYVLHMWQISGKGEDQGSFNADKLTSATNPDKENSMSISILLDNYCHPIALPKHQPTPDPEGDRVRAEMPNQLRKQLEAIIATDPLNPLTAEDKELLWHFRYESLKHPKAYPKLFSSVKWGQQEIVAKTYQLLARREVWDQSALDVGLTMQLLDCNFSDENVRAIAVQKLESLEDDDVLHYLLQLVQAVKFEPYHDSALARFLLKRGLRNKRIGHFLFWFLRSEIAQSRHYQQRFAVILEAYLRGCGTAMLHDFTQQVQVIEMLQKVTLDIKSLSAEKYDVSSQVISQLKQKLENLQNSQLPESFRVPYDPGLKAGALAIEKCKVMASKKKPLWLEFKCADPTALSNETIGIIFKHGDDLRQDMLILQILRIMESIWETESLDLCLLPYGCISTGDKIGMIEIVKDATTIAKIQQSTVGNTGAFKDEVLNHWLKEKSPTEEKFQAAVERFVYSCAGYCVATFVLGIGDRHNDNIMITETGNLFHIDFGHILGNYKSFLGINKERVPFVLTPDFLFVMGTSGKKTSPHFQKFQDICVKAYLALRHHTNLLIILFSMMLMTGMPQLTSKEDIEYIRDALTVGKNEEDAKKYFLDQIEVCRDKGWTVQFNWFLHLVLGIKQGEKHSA
Assay: PI3K-gamma fluorescence polarization assay
Type: biochemical
Conditions: PI3Kγ Avg. IC50
Description: PI3K-Alpha, PI3K-Beta, PI3K-Gamma, and PI3K-delta Fluorescence Polarization Assay Protocols PI3-Kinase reactions were performed in 5 mM HEPES, pH 7, 2.5 mM MgCl2, and 25 μM ATP, with diC8-PI(4,5)P2 (Echelon, Salt Lake City Utah) as substrate. Nunc 384-well black polypropylene fluorescent plates were used for PI3K assays. […] Assay Plates were read on Perkin-Elmer Envision plate readers with appropriate filters for Tamra [BODIPY-TMRI(1,3,4,5)P4]. […]
Answers are plain numbers, in nM.

The cases that follow already have their IC50 on record.
COc1ccc2c(c1)c(C=C1Oc3cc(O)cc(O)c3C1=O)cn2CCCN1CCN(CCO)CC1 [Example 113]: 1360
CNC(=O)Nc1ccc2c(c1)C(=O)/C(=C/c1c(C3=CCNCC3)[nH]c3ccc(OC)cc13)O2 [Compound 606]: 113
Cn1cc(/C=C2\Oc3cc(O)cc(O)c3C2=O)c2c(-c3ccc(NC(=O)NC4CC4)cc3)cccc21 [Example 401]: 2680
CCc1c(/C=C2\Oc3cc(O)cc(O)c3C2=O)c2cc(OC)ccc2n1CCCC#N [Compound 493]: 15.5
CNC(=O)Nc1ccc2c(c1)C(=O)/C(=C/c1c[nH]c3ccc(OC)cc13)O2 [Compound 536]: 545
COC(=O)Nc1ccc(-c2cccc3c2c(/C=C2\Oc4cc(O)cc(O)c4C2=O)cn3C)cc1 [Example 391]: 2390

Record IC50 for all entries; do not skip any.
1. COc1ccc2c(c1)c(/C=C1\Oc3ccc(NC(=O)Nc4ccc(OCCCCN(C)C)cc4)cc3C1=O)c(C)n2CCN1CCN(C)CC1 [Compound 674]
2. CNC(=O)Nc1ccc2c(c1)C(=O)/C(=C/c1c(-c3c(C)nn(C)c3C)n(CCN(C)CCN(C)C)c3ccc(OC)cc13)O2 [Compound 665]
3. Cn1c(-c2ccncc2)c(C=C2Oc3cc(O)cc(O)c3C2=O)c2ccccc21 [Example 190]

Response:
[686, 127, 8540]

###

Molecular target: UniProtKB P48736
Assay: PI3K-gamma fluorescence polarization assay
Format: biochemical
Conditions: PI3Kγ Avg. IC50
RECORDED_METRIC: IC50

N#CCCCCn1c(-c2ccccc2)c(C=C2Oc3cc(O)cc(O)c3C2=O)c2ccccc21: > 10 µM
Cn1cc(/C=C2\Oc3ccc(NC(=O)OC(C)(C)C)cc3C2=O)c2c(-c3ccccc3)cccc21: > 10 µM
Cn1cc(/C=C2\Oc3cc(O)ccc3C2=O)c2c(-c3ccccc3)cccc21: > 5.1 µM

Kindly consider the entry below.
Request: Item CNC(=O)Nc1cc(O)cc2c1C(=O)/C(=C/c1c[nH]c3ccc(OC)cc13)O2 has what recorded IC50?
Response: > 10 µM

###

Molecular target: human TOR (Homo sapiens, UniProt P42345)
Construct: FLAG
Experiment: mTOR enzyme assay (DELFIA, His6-S6K substrate)
Format: biochemical
Details: read-out: mTOR Kinase Avg. IC50
pIC50: −log10 of the molar value.
RECORDED_METRIC: pIC50

These solved cases illustrate the format of a correct answer.
COc1ccc2[nH]cc(C=C3Oc4cc(O)cc(O)c4C3=O)c2c1C [Example 219]: < 4.70
COc1ccc2c(c1)c(/C=C1\Oc3cc(O)cc(O)c3C1=O)c(C(F)(F)F)n2CCN1CCN(C)CC1 [Example 336]: > 7.66
Cc1c(C=C2Oc3cc(O)cc(O)c3C2=O)c2ccccc2n1CCCCCl [Example 94]: < 5.30
COc1ccc2c(c1)c(/C=C1\Oc3cc(CO)ccc3C1=O)cn2CCCN(C)C [Example 424]: < 4.70
COc1cc(F)c2[nH]c(-c3c(C)nn(C)c3C)c(/C=C3\Oc4ccc(NC(=O)Nc5ccc(C(=O)NCCN(C)C)cc5)cc4C3=O)c2c1 [Compound 733]: > 9.00

Request: Look up pIC50 for this compound: COc1ccc2c(c1)c(/C=C1\Oc3cc(O)c(C)cc3C1=O)c(C)n2CCN1CCN(C)CC1 [Example 458]
Response: < 4.70

###

Molecular target: PI3K-gamma (Homo sapiens)
Experiment: PI3K-gamma fluorescence polarization assay
Format: biochemical
Conditions: PI3Kγ Avg. IC50
For each of the compounds below, state its pIC50.
Answers are plain numbers, as −log10 of the molar value.

Below, 2 compounds whose answers are already recorded.
CCc1cc(OC)cc2c(/C=C3\Oc4cc(O)ccc4C3=O)cn(CCN3CCN(C)CC3)c12: 5.58
COc1ccc2c(c1)c(/C=C1\Oc3cc(O)ccc3C1=O)c(C(=O)N(C)C)n2CCCN(C)C: 6.16

Now examine the next entry.
Request: Entry under review: CCn1c(C)c(/C=C2\Oc3ccc(NC(=O)Nc4ccc(OCCCN(C)C)cc4)cc3C2=O)c2cc(OC)ccc21 . Reported pIC50?
Response: 8.12
